experimental_system: T1, Human Siglec-15, His Tag (human Siglec-15 full-length extracellular domain linked with His tag) (human, UniProt Q6ZMC9 20-263)
T1 construct: Bought from ACROBiosystems; also called Siglec-15 protein; SG5-H52H3
T1 sequence: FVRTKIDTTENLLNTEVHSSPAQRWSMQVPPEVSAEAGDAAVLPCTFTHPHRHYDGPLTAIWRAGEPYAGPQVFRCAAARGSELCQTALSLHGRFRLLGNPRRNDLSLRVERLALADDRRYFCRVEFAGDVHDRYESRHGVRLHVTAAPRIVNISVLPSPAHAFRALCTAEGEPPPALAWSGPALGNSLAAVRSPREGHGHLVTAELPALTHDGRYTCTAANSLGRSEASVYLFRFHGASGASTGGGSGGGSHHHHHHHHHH
experiment_notes: SPR Biacore 8K, antibody captured by anti-human Fc, Siglec-15 His as analyte
property_measured: pKd
// pKd is dimensionless: -log10 of concentration (M)

255C12B10 chimeric antibody (antibody, V domains shown, Mouse variable regions combined with human IgG1 (N297A) constant regions) VH: EVQLQQSGPELVKPGASVKMSCKASGYTFTGYNMNWVKQSHGKSLEWIGYINPNNGGTRYNQKFKGKATLTINKSSSTAYMELRSLTSEDSAVYYCARDYGIDYWGQGTTLTVSS VL: EIQMTQSPSSMSASLGDRITITCQATQDIVKNLNWYQQKPGKPPSFLIYYATELAEGVPSRFSGSGSGSDYSLTISNLESEDFADYYCLQFYEFPYTFGGGTKLEIK; 9.27

# pKd (binder: 174C11C9 chimeric antibody (antibody, human IgG1, V domains shown, also called 174C11C9-mHL) VH: EVQLQQSGPVLVKPGASVKMSCEASGYIFTDYYMNWVKQSPGKSLEWIGVFNPYSGGISYNQKFKGKATLTVDTSSSTAYMELNSLTSEDSAVYYCARDYYYLSSHGFYALDYWGQGTSVTVSS VL: DIVLTQSPASLAVSLGQRATISCRASESVDSYGNSFIHWYQQRPGRPPKLLMYRASNLESGIPARFSGSGSRTDFTLTIDPVEADDVATYYCQQSNEDPLTFGAGTKLELK ) is 9.52
